Please respond with reported pIC50 for every item in the list.
Test system: 699152-130-R-J1-PDC complex spheroid viability
PROCEDURE_DETAILS: Anticancer human tumor 699152-130-R-J1-PDC patient-derived pancreatic carcinoma cell line growth inhibition [POLQ]
RUN_PARAMETERS: curve of first compound; second compound 1 µM
pIC50: −log10 of the molar value.

MOLECULE	READOUT_LABEL	RESULT_VALUE
COc1ccc([C@@H](O)c2cc(-c3ncnc4cc(N5CCOCC5)ccc34)c(F)cc2Cl)nn1 + COC1C(OC(N)=O)C(O)C(Oc2ccc3c(O)c(NC(=O)c4ccc(O)c(CC=C(C)C)c4)c(=O)oc3c2C)OC1(C)C	pIC50	5.45
CC(=O)O[C@H]1C(=O)[C@@]2(C)[C@H]([C@H](OC(=O)c3ccccc3)[C@]3(O)C[C@H](OC(=O)[C@H](O)[C@@H](NC(=O)c4ccccc4)c4ccccc4)C(C)=C1C3(C)C)[C@]1(OC(C)=O)CO[C@@H]1C[C@@H]2O + COC1C(OC(N)=O)C(O)C(Oc2ccc3c(O)c(NC(=O)c4ccc(O)c(CC=C(C)C)c4)c(=O)oc3c2C)OC1(C)C	pIC50	< 5.52
CC(=O)O[C@H]1C(=O)[C@@]2(C)[C@H]([C@H](OC(=O)c3ccccc3)[C@]3(O)C[C@H](OC(=O)[C@H](O)[C@@H](NC(=O)c4ccccc4)c4ccccc4)C(C)=C1C3(C)C)[C@]1(OC(C)=O)CO[C@@H]1C[C@@H]2O + Cc1cccc(N(C)C(=O)C2C(O)CCN2c2nc(C)cc(C(F)(F)F)c2C#N)c1	pIC50	< 5.52

Take each entry in turn and give its pIC50.
1. Cn1ncnc1[C@H]1c2n[nH]c(=O)c3cc(F)cc(c23)N[C@@H]1c1ccc(F)cc1 + Cc1cccc(N(C)C(=O)C2C(O)CCN2c2nc(C)cc(C(F)(F)F)c2C#N)c1
2. O=C(c1cc(Cc2n[nH]c(=O)c3ccccc23)ccc1F)N1CCN(C(=O)C2CC2)CC1 + Cc1cccc(N(C)C(=O)C2C(O)CCN2c2nc(C)cc(C(F)(F)F)c2C#N)c1
3. CNCc1ccc(-c2[nH]c3cc(F)cc4c3c2CCNC4=O)cc1 + Nc1ccc(C#CCN(C(=O)Cc2ncc(C(F)(F)F)cc2C(F)(F)F)c2ccc(F)cc2)nn1
4. C#Cc1c(F)ccc2cc(O)cc(-c3ncc4c(N5CC6CCC(C5)N6)nc(OCC56CCCN5CC(F)C6)nc4c3F)c12 (centres undefined) + COC1C(OC(N)=O)C(O)C(Oc2ccc3c(O)c(NC(=O)c4ccc(O)c(CC=C(C)C)c4)c(=O)oc3c2C)OC1(C)C
5. CC(C)n1c(=O)n(C)c2cnc3cc(F)c(-c4ccc(OCCCN5CCCCC5)nc4)cc3c21 + Nc1ccc(C#CCN(C(=O)Cc2ncc(C(F)(F)F)cc2C(F)(F)F)c2ccc(F)cc2)nn1
6. CC1COCCN1c1cc(-c2ccnn2C)c2ccnc(-c3ccn[nH]3)c2n1 (centres undefined) + Cc1cccc(N(C)C(=O)C2C(O)CCN2c2nc(C)cc(C(F)(F)F)c2C#N)c1

A.
1: < 7.00; 2: < 5.00; 3: < 5.00; 4: > 7.50; 5: < 5.00; 6: 5.29

----------
System: 699152-130-R-J1-PDC complex spheroid viability
PROCEDURE_DETAILS: Anticancer human tumor 699152-130-R-J1-PDC cell line growth inhibition [POLQ];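 also: spheroids exposed to agents for 7 days before viability reading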
RUN_PARAMETERS: curve of first compound; second compound 0.0316 µM
READOUT_LABEL: IC50 (µM)
One number for each entry, in µM.

Guide cases for IC50, answers given:
COMPOUND	UNIT_NAME	RESULT_VALUE
COc1cccc(OCCCN)c1-c1cc(Nc2cnc(C#N)cn2)n[nH]1 + COC1C(OC(N)=O)C(O)C(Oc2ccc3c(O)c(NC(=O)c4ccc(O)c(CC=C(C)C)c4)c(=O)oc3c2C)OC1(C)C	µM	0.256
CC1COCCN1c1cc(-c2ccnn2C)c2ccnc(-c3ccn[nH]3)c2n1 (stereo not given) + Cc1cccc(N(C)C(=O)C2C(O)CCN2c2nc(C)cc(C(F)(F)F)c2C#N)c1	µM	2.33
COc1ccc([C@@H](O)c2cc(-c3ncnc4cc(N5CCOCC5)ccc34)c(F)cc2Cl)nn1 + Nc1ccc(C#CCN(C(=O)Cc2ncc(C(F)(F)F)cc2C(F)(F)F)c2ccc(F)cc2)nn1	µM	3.01

Kindly review the next compound as well.
Q. State the recorded IC50 for this entry: COc1ccc([C@@H](O)c2cc(-c3ncnc4cc(N5CCOCC5)ccc34)c(F)cc2Cl)nn1 + Cc1cccc(N(C)C(=O)C2C(O)CCN2c2nc(C)cc(C(F)(F)F)c2C#N)c1
A. 4.08
